parameter measured: melting point (°C)
The response must be a number in °C with no trailing unit.

INSERT INTO results (compound, recorded_value) VALUES
  ('c1ccc(-c2ncoc2-c2ccccc2)cc1', 44);

Request the reported melting point associated with "N#CCN"
101

Next record, please: "CCOC(=O)c1ccc(C#N)cc1"
54

Next record, please: "CC(=O)Nc1ccc(OC(=O)c2ccccc2O)cc1"
187

Next record, please: "O=c1[nH]nc2oc3ccccc3cc1-2"
220

* * *

melting point below 100 °C gives False; melting point at or above it gives True.

Please review the following examples before continuing.
INSERT INTO measurements (molecule, qualitative_label) VALUES
  ('COc1cccc(F)c1C=O', 'False'),
  ('CC(=O)c1ccc(NC(=O)C(F)(F)C(F)(F)C(F)(F)C(F)(F)C(F)(F)C(F)(F)C(F)(F)C(F)(F)F)cc1', 'True'),
  ('N#C/C(=N/Nc1ccc(Cl)cc1)c1nc(-c2ccccc2)cs1', 'True'),
  ('O=C1C(=O)N(c2ccccc2)c2ccccc21', 'True');

Would you say "C#CC#C" shows melting point at minimum 100 °C?
False

Next record, please: CC(C)(C)OC(=O)NC(CCC(N)=O)C(=O)O (stereo not given)
True

Next record, please: "c1ccc(Cn2cncn2)cc1"
False

Next record, please: "O=C1C(Cl)=C(NC(=O)C(Cl)Cl)C(=O)c2ccccc21"
True

Next record, please: "O=C(O)c1cc2cccc([N+](=O)[O-])c2[nH]1"
True

Next record, please: "CN(C)C=Nc1c(I)cc(I)c(CCC(=O)O)c1I"
True

Next record, please: CC1CCC(C(C)C)C(OC(=O)C2=CCC(C(=O)OC3CC(C)CCC3C(C)C)CC2)C1 (stereo not given)
True

Next record, please: "COc1cc(O)c2c(=O)c(O)c(-c3ccc(O)c(O)c3)oc2c1"
True

Next record, please: "Cc1ccc(S(=O)(=O)Nc2ccc(Cl)cc2)cc1"
True

* * *

melting point below 90 °C gives -1; melting point at or above it gives 1.

Please review the following examples before continuing.
INSERT INTO measurements (compound, qualitative_label) VALUES
  ('Cn1cnc2ccccc21', -1),
  ('O=C(Cl)C12CC3CC(CC(C3)C1)C2', -1),
  ('NC(C(=O)O)C1=CCC=CC1 (configuration not stated)', 1),
  ('COc1cc(NC(=S)N(C)C)c(C(c2ccc(C)o2)c2ccc(C)o2)cc1OC', 1),
  ('COP(=S)(Oc1cc(Cl)c(Br)cc1Cl)c1ccccc1 (configuration not stated)', -1),
  ('CCCSc1ccccc1', -1),
  ('OCCNC(=S)C(=S)NCCO', 1);

Would you say COC(=O)C1=C(C)NC(=S)NC1c1ccc([N+](=O)[O-])cc1 (configuration not stated) shows melting point at minimum 90 °C?
1

* * *

parameter measured: melting point

INSERT INTO measurements (molecule, recorded_value) VALUES
  ('COCc1cc(=O)oc2cc(N)ccc12', '184 °C');

Request the reported melting point associated with "CCOC(=O)CSc1nc(=O)[nH]c2c1CCCC2"
192 to 193 °C

Next record, please: "O=C(O)C1(c2c(F)cccc2Cl)CCCCC1"
128 to 134 °C

Next record, please: "C/C(=N\c1ccc(O)c(C)c1)c1c(O)c2ccccc2n(-c2ccccc2)c1=O"
231 to 232 °C

Next record, please: CCOC(=O)c1csc(C2COc3ccccc3O2)n1 (stereo unspecified)
66.5 to 69.8 °C

Next record, please: "CC(C)CNC(=O)C(C(F)(F)F)C(F)(F)F"
111 °C

* * *

Measured melting point by item
The response must be a number in °C with no trailing unit.

Look over these answered cases.
INSERT INTO results (compound, recorded_value) VALUES
  ('O=C(NC(CC=Cc1ccccc1)C(=O)O)OCC1c2ccccc2-c2ccccc21 (stereo unspecified)', 142),
  ('CC(C)(C)N(NC(=O)c1ccccc1)C(=O)c1cccc(C#N)c1', 174),
  ('O=Cc1ccc(OCC(=O)O)cc1', 198),
  ('Cn1c(/C(C#N)=N/Nc2ccccc2Cl)nc2ccccc21', 193),
  ('CCCC(CC(OCC)OCC)OCC (stereo unspecified)', -100);

API: the following record is the query input.
Request the reported melting point associated with O=C1CC(c2ccccc2)c2ccccc21 (stereo unspecified)
77

* * *

parameter measured: melting point (°C)
The response must be a number in °C with no trailing unit.

Look over these answered cases.
INSERT INTO measurements (compound, parameter_measured, recorded_value) VALUES
  ('NNC(=S)Nc1ccc(Cl)cc1Cl', 'melting point', 169),
  ('CCOC(=O)C(Nc1cccc(NC(C(=O)OCC)C(=O)OCC)c1)C(=O)OCC', 'melting point', 79),
  ('O=S1(=O)OC(c2cc(Cl)c(O)c(Br)c2)(c2cc(Cl)c(O)c(Br)c2)c2ccccc21', 'melting point', 230),
  ('Cc1ccccc1NC(=O)c1cnc(C(C)(C)C)cn1', 'melting point', 81),
  ('Nc1cccc2c1C(=O)c1cccc(Cl)c1C2=O', 'melting point', 207);

Request the reported melting point associated with "O=S(=O)(Cl)c1cccc(Cl)c1"
21

* * *

parameter measured: melting point (°C)
The response must be a number in °C with no trailing unit.

Look over these answered cases.
INSERT INTO assay_data (compound, unit_name, recorded_value) VALUES
  ('COC(=O)c1sccc1-n1cccc1', '°C', 61),
  ('Fc1ccc(Br)c(CBr)c1', '°C', 35),
  ('Oc1c(Br)ccc2cccnc12', '°C', 140),
  ('FC(F)(Cl)CCl', '°C', -101),
  ('Cc1c(C#N)cccc1C#N', '°C', 136);

Request the reported melting point associated with "CC(C)(C)C1=NN(c2ccccc2)C(=O)C1"
110

Next record, please: CC1C=Cn2c(cc3ccccc3c2=O)C1 (centres undefined)
89

Next record, please: "Cc1ccc(C)c2ccccc12"
7.6

Next record, please: "CCOC(=O)c1sc2sc(C(=O)OCC)c(C)c2c1C"
187

Next record, please: "CCCCCC(=O)Cl"
-87

Next record, please: "COc1ccc(S(=O)(=O)Cl)c(OC)c1"
72

Next record, please: "O=[N+]([O-])c1ncccc1Br"
104

Next record, please: "Cc1cc(C)c(CS)c(C)c1"
47

Next record, please: CCOC(=O)C1C(c2ccc(C)cc2)C(C(=O)OCC)C(O)(C(F)(F)F)NC1(O)C(F)(F)F (centres undefined)
93

Next record, please: "O=C(O)c1cc(F)c(F)c(Br)c1F"
123

Next record, please: "Nc1ncccc1Br"
66

Next record, please: COC1CCC(OC)O1 (centres undefined)
-45

Next record, please: "NC(=O)c1ccccc1CO"
150

Next record, please: "Nc1ccccc1C(=O)c1ccccc1"
107

Next record, please: "COC(=O)Nc1nc2ccc(C(=O)c3ccccc3)cc2[nH]1"
288

* * *

Binarize melting point at 200 °C; below is 1, at or above is -1.

Please review the following examples before continuing.
INSERT INTO assay_data (query_smiles, qualitative_label) VALUES
  ('CCc1nnc(/N=N/c2c(-c3ccccc3)n(C)c3ccccc23)s1', -1),
  ('N#CC(C#N)=C(SCc1ccccc1)SCc1ccccc1', 1),
  ('NC(=S)NN=C1C(=O)Nc2ccccc21', -1);

I wonder whether "COC(=O)c1ccc(Cl)c(Cl)c1" has melting point below 200 °C. Can you tell?
1

Next record, please: "c1ccc(-c2c(-c3[nH]c4ccccc4c3-c3ccccc3)[nH]c3ccccc23)cc1"
-1

Next record, please: "CC(C)c1nc2ccccc2[nH]1"
-1

Next record, please: "O=C(N[C@@H](Cc1ccc(Br)cc1)C(=O)O)OCC1c2ccccc2-c2ccccc21"
1

* * *

Measured melting point by item
The response must be a number in °C with no trailing unit.

INSERT INTO assay_data (compound, recorded_value) VALUES
  ('O=C1CCC(c2ccccc2)O1 (stereo not given)', 36.5),
  ('Cc1[nH]c2nc(C(F)(F)F)nn2c(=O)c1Cl', 215),
  ('Cc1ccc(NN=C2C(=O)NN=C2C(F)(F)F)cc1', 230);

API: the following record is the query input.
Request the reported melting point associated with "O=S(=O)(O)c1ccc(Nc2ccccc2)cc1"
206

* * *

Measured melting point by item
The response must be a number in °C with no trailing unit.

Look over these answered cases.
INSERT INTO assay_data (compound, recorded_value) VALUES
  ('COc1c(C)cc2c(c1C)CC2=O', 51),
  ('O=[N+]([O-])c1ccc(C(Br)C(Br)c2cccc3ccccc23)c([N+](=O)[O-])c1 (centres undefined)', 161),
  ('CCC(C(=O)O)C1(O)CCCCC1 (centres undefined)', 81.5);

Request the reported melting point associated with CC1=CC(C(=O)O)c2ccccc21 (centres undefined)
139

Next record, please: COc1cc2c(cc1OC)CN1C(=O)C(C)NC(=O)C1C2 (centres undefined)
234

Next record, please: O=C1C(C(O)c2ccccc2)C(C(F)(F)F)=NN1c1ccccc1 (centres undefined)
258
